Recorded SPOT peptide array binding signal intensity values for a group of binders are listed next.
target_or_test_system: CaFus1
experiment_description: SPOT peptide array binding signal intensity (averaged, normalized) (arbitrary units (background-subtracted, floor 0; scale differs between SH3 domains)); higher = stronger binding of the SH3 domain to the peptide

[Q] Given SGVRLPAPPPPPRRG , state its recorded SPOT peptide array binding signal intensity.
[A] 74

[Q] And for KRRAPPPVPKKPSSR ?
[A] 308

These entries and their values trace back to the supplement of paper PMC4466140.
